Cited source for all entries: paper PMC12257540

Please provide measured log10 IC50 for the entries that follow.
Biological target: IDH1R132H (Homo sapiens, UniProt O75874, R132H)
Sequence (O75874 whole entry R132H): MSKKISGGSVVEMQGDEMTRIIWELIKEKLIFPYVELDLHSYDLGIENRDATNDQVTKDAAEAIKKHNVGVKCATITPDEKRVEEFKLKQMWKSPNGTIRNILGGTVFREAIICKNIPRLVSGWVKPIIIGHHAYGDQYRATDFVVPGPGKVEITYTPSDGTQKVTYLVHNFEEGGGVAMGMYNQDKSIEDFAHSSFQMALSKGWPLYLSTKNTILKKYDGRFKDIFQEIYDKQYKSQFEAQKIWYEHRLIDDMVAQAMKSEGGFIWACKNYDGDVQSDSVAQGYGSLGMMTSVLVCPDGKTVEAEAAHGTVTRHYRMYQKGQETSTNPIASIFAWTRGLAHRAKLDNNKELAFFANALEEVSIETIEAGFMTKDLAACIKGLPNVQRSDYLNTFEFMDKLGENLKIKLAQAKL
Experiment: Mutant IDH1 enzyme assay for determination of inhibitory potency (diaphorase/resazurin)
Details: recombinant IDH1R132H, 30 min preincubation, 60 min reaction
Use the decimal logarithm of IC50 (nM).

Endpoint output: log10 IC50 of Cc1cccc(NC(=O)c2nn(CCCCF)c3c2CN(C(=O)c2ccc[nH]2)CC3(C)C)c1 . Value?
2.76

Consider the molecule shown here: Cc1cccc(NC(=O)c2nn(Cc3ccc(F)cc3)c3c2CN(C(=O)C(C)(C)CF)CC3(C)C)c1 What is its recorded log10 IC50?
3.11

Any idea what its log10 IC50 is? The molecule is CC1(C)CN(C(=O)c2ccc[nH]2)Cc2c(C(=O)Nc3ccccc3F)nn(Cc3ccc(F)cc3)c21
2.29

Data request, read-out log10 IC50, for CC1(C)CN(C(=O)c2ccc[nH]2)Cc2c(C(=O)NC34CC5CC(CC(C5)C3)C4)nn(Cc3ccc(F)cc3)c21
2.21

// log10 IC50 lookup, key: CC1(C)CN(C(=O)c2ccc[nH]2)Cc2c(C(=O)NC3CCCC3)nn(Cc3ccc(F)cc3)c21
3.77

// query log10 IC50 value for entry CC1(C)CN(C(=O)c2ccc[nH]2)Cc2c(C(N)=O)nn(Cc3ccc(F)cc3)c21
3.70

----------
Experiment: logD7.4 by shake-flask method (n-octanol/PBS)
Type: physicochemical
Details: n-octanol/PBS pH 7.4, n = 4
property: logD
Just the number, please.

Given the compound Cc1cccc(NC(=O)c2nn(Cc3ccc([18F])cc3)c3c2CN(C(=O)c2ccc[nH]2)CC3(C)C)c1 [[18F]SK60] , what is its reported logD?
2.3

----------
Target: IDH1R132H (Homo sapiens, UniProt O75874, R132H)
Experiment: Mutant IDH1 enzyme assay for determination of inhibitory potency (diaphorase/resazurin)
Settings: recombinant IDH1R132H, 30 min preincubation, 60 min reaction
Description: Determination of the activity and inhibition of mutant IDH1 recombinant protein, IDH1R132H, is based on the reduction of α-KG acid to D-2-HG accompanied by a concomitant oxidation of NADPH to NADP. The amount of NADPH remaining at the end of the reaction time is measured in a secondary diaphorase/resazurin reaction, in which the NADPH is consumed in a 1/1 molar ratio with the conversion of resazurin to the highly fluorescent resorufin. […]
property: IC50

What value of IC50 has been reported for the following compound? CC1(C)CN(C(=O)c2ccc[nH]2)Cc2c(C(=O)N3CCCCC3)nn(Cc3ccc(F)cc3)c21
> 1 µM

Item CCCOCCNC(=O)c1nn(Cc2ccc(F)cc2)c2c1CN(C(=O)c1ccc[nH]1)CC2(C)C has what recorded IC50?
> 5 µM

I am curious: what IC50 value has been reported for CC1(C)CN(C(=O)c2ccc[nH]2)Cc2c(C(=O)N3CCOCC3)nn(Cc3ccc(F)cc3)c21 ?
> 10 µM

Which measured IC50 value corresponds to CN(C)C(=O)c1nn(Cc2ccc(F)cc2)c2c1CN(C(=O)c1ccc[nH]1)CC2(C)C ?
> 10 µM
